System: UACC-62 melanoma
Assay: NCI tumour cell line growth inhibition, 48 h
READOUT NAME: TGI

Query: I am curious: what TGI value has been reported for C=C(C=O)c1c2c(nc3ccccc13)C(=O)c1ccccc1C2=O ?
Response: 2.59 µM

Query: Quick one: TGI of CC(c1ccc(Br)cc1)C(C(=O)O)C(=O)O (stereo unspecified) ?
Response: > 100 µM

Query: Which value of TGI has been reported for CCCN(CCC)c1ccc(CO)c(C)c1 in the records?
Response: > 100 µM

Query: Could you share which TGI value was measured for CCOc1ccc2c(c1)/C(=C(\C(Cl)=C(Cl)Cl)[N+](=O)[O-])N2 ?
Response: > 100 µM

Query: Requested read-out: TGI. Entry: CCCCCCCCCCCCCCCC(=O)OCC(O)C1OC(=O)C(O)=C1O (stereo unspecified)
Response: 75 µM

Query: Fill blank: measured TGI of the compound Cc1ccccc1C(=O)Oc1ccc(Oc2ccccc2)cc1 is ____.
Response: > 100 µM

Query: Entry under review: CN1CCC2(CC1)C(=O)N(N1CCCCCC1)C(=O)N2c1ccccc1 . Reported TGI?
Response: > 100 µM

Query: Need TGI, item O=C(O)C1C2CC3C(OC(=O)C31)C2Br (stereo unspecified)
Response: > 100 µM

Query: What value of TGI has been recorded for this entry: CC(=O)OC12c3ccccc3C1CCCCCC21OCCCO1 (stereo unspecified)
Response: > 100 µM

Query: Find the recorded TGI belonging to O=C(CSc1nc(=O)[nH]c2nc[nH]c12)Nc1ccccc1 and report it.
Response: > 100 µM

Query: I have this compound here, O=C(c1cc(Cl)cc(Cl)c1)N(C(=S)OC12CC3CC(CC(C3)C1)C2)c1ccccc1 , and I need its recorded TGI.
Response: > 100 µM

====

System: T-47D breast
Assay: NCI tumour cell line growth inhibition, 48 h
Consider the following molecules; for each one, report its TGI.
Lab book: enter the figure in µM, no units written.

Query: Fill blank: measured TGI of the molecule COC(CCP(=O)(c1ccccc1)c1ccccc1)(C(=O)c1ccccc1)c1ccccc1 (stereo unspecified) is ____.
Response: 12.3

Query: Please give the measured TGI for this molecule: O=C(/C=C/c1ccc(O)c(O)c1)OCCc1cccc2ccccc12
Response: 42.3

Query: I'd like to know its TGI. The molecule in question is O=C(COc1cccc(/C=C2\COc3ccccc3C2=O)c1)Nc1nccs1
Response: 12.5

Query: Look up TGI: C#C[C@]1(O)CC[C@H]2[C@@H]3CC=C4c5sc(N=C(N)N)nc5CC[C@]4(C)[C@H]3CC[C@@]21C
Response: 3.16

Query: Which measured TGI value corresponds to NNC(=O)c1c(Cl)c(Cl)c(Cl)c(Cl)c1-c1nc2ccccc2[nH]1 ?
Response: 24

Query: Item under review: CC(=O)C1=C(N=[N+]=[N-])c2cccc3cccc(c23)C1=O . Reported TGI?
Response: 41.2

Query: Endpoint output: TGI of O=C(Oc1ccccc1)c1cc2cc(CCl)ccc2oc1=O . Value?
Response: 38.7

Query: Which measured TGI value corresponds to CO[C@@H]1[C@@H](OC2OC(C)C(OC3CC(C)(O)C(OC(=O)CC(C)C)C(C)O3)C(N(C)C)C2O)[C@@H](CC=O)C[C@@H](C)C(=O)/C=C/C2O[C@H]2C[C@@H](C)OC(=O)C[C@H]1OC(C)=O (stereo partly specified) ?
Response: 84.4

Query: Find the recorded TGI belonging to Brc1ccc([I+]c2ccc(Br)cc2)cc1 and report it.
Response: 11

Query: Would you kindly share the measured TGI for CC[N+]1(C)CCC(O)(c2ccc(Cl)cc2)C(C(=O)c2ccc(Cl)cc2)C1 (stereo unspecified) ?
Response: 17.8

Reference for the values: PubChem BioAssay (NCI)
